Could you please report measured EC50 for the items listed next?
# targetSystem: Claudin18.2-His protein (human)
# assayMethodText: indirect ELISA on coated Claudin18.2-His
Answers are plain numbers, in µg/mL.

List the reported EC50 of each binder below.
1. 391H11H3 (antibody, V domains shown) VH: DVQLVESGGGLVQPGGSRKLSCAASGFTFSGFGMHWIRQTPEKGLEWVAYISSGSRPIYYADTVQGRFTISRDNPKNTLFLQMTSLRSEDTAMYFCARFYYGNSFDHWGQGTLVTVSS VL: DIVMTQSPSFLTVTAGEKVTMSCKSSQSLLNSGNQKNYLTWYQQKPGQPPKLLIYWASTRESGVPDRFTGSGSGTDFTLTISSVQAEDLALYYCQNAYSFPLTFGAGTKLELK
2. 370E2B12C3 (antibody, V domains shown) VH: QVQLKESGPGLVAPSQSLSITCTVSGFSLTTYGVHWVRQPPGKGLEWLGVIWAGGSTNYNSALMSRVSINKDNSKSQVFIKMNSLQADDTALYYCARAAYYGNGLDYWGQGTTLTVSS VL: DIVMTQSPSSLTVTAGEKVTMSCKSSQTLLNSGNQKNYLTWYQQKPGQPPKLLIYWASTGESGVPDRFTGSGSGTDFTLTISSVQAEDLAVYFCQNAYFYPFTFGGGTKLEIK
3. 234A10F7 (antibody, V domains shown) VH: QVQLQQSGAELVKPGASVKLSCKASGYTFTSFGINWLRQRPEQGLEWIGWIFPGDGNSKYNENFKGKATLTTDKSSSTAYMQLTRLTSEDSAVYFCARFYYGNSFAYWGQGTLVTVSA VL: DIVMTQSPSSLTVTTGQKVTMSCKSSQSLLNSGNQKNYLTWYQQKPGQPPKLLIYWAATRESGVPDRFTGSGSGTDFTLTISSVQAEDLAVYYCQNDYFYPFTFGAGTKLELK

*A*
0.0162
0.0156
0.0268

Just for reference, patent US20220073643A1 is where these values come from.
